Hello, the source for this data is patent US20160166560A1, in case you need it.

# subject-of-test: FAAH (Mus musculus)
# Sequence (O08914 whole entry): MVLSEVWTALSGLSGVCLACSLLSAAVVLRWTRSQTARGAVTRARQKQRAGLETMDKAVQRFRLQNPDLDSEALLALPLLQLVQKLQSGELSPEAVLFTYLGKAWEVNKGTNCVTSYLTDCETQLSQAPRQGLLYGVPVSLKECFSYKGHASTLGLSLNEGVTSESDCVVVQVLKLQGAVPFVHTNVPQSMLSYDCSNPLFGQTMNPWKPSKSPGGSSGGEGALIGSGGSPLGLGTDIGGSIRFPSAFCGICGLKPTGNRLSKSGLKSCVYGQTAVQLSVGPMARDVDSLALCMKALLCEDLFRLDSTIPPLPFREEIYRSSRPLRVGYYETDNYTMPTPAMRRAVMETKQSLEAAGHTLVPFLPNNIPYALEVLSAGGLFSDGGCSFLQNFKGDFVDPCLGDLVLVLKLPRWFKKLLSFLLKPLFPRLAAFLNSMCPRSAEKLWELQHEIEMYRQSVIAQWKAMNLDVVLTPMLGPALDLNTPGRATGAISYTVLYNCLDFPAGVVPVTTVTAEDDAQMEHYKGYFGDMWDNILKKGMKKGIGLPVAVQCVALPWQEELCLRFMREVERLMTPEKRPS
# procedure-text: In vitro/ex vivo FAAH activity determination in brain after intra-tracheal instillation
# Design: Liver and brain fragments were removed and processed for enzymatic activity determination; from tissue; species or system male NMRI mice
# settings: remaining enzymatic activity vs controls, 1 mg/kg intra-tracheal instillation, sacrificed after 8 h
Where a name gives a salt, the structure may show the parent alone.
assay-endpoint: FAAH Activity - Brain itc (% C)

COc1cccc(CN2CCC(N(C)C(=O)n3cnc(-c4cccc(OS(N)(=O)=O)c4)c3)CC2)c1.Cl | 84.2
CN(C(=O)n1cnc(-c2cccc(NC(N)=O)c2)c1)C1CCN(c2ccc(O)cc2)CC1 [Example 25, hydrochloride] | 100.7
COc1ccc(CN2CCC(N(C)C(=O)n3cnc(-c4cccc(NS(C)(=O)=O)c4)c3)CC2)cc1OC [Example 5, hydrochloride] | 104.7
CN(C(=O)n1cnc(-c2cccc(NC(N)=O)c2)c1)C1CCN(Cc2ccc3c(c2)OCO3)CC1.Cl | 93.3
COc1ccccc1N1CCC(N(C)C(=O)n2cnc(-c3cccc(C(N)=O)c3)c2)CC1 [Example 34, hydrochloride] | 78.7
CN(C(=O)n1cnc(-c2cccc(OS(N)(=O)=O)c2)c1)C1CCN(c2ccc(O)cc2)CC1 [Example 15, hydrochloride] | 91.1

----------
# procedure-text: Solubility assay in purified water
# Format: physicochemical
# settings: pH 5.7, thermodynamic from solid; purified water pH=5.6-5.8, stirring 2 h, room temperature, HPLC
Where a name gives a salt, the structure may show the parent alone.
assay-endpoint: solubility at 2 h (µg/mL)

1: COc1cccc(CN2CCC(N(C)C(=O)n3cnc(-c4cccc(NS(N)(=O)=O)c4)c3)CC2)c1 [Example 3, hydrochloride]
2: CN(C(=O)n1cnc(-c2cccc(NC(N)=O)c2)c1)C1CCN(Cc2ccccc2)CC1.O=C(O)/C=C\C(=O)O
Looking at 1 and 2 , which one comes out lower in solubility at 2 h terms? Give the label of your selection.
2
(2: 4300 µg/mL, 1: 7700 µg/mL)

----------
# Test system: CYPs
# procedure-text: CYPs metabolic stability assay in HLM (human liver microsomes)
# Format: in vitro ADME
# settings: HLM 1 mg/ml protein, absence of NADPH, compound 5 μM, 60 min, 37° C.
# Method: Stability of the test compounds was performed in HLM (human liver microsomes) in the presence and in the absence of NADPH. The stability was measured using the incubation mixture (100 μl total volume) contained 1 mg/ml total protein, MgCl2 5 mM and 50 mM K-phosphate buffer. Samples were incubated in the presence and in the absence of NADPH 1 mM. Reactions were pre-incubated 5 min and the reaction initiated with the compound under test (at a concentration of 5 μM). […]
Structures can show the parent of a compound that is named as a salt.
assay-endpoint: Control (% remain)

COc1ccc(CN2CCC(N(C)C(=O)n3cnc(-c4cccc(NS(C)(=O)=O)c4)c3)CC2)cc1OC [Example 5, hydrochloride] | 100
COc1cccc(CN2CCC(N(C)C(=O)n3cnc(-c4cccc(NC(N)=O)c4)c3)CC2)c1.Cl [Example 17] | 103.4
COc1ccc(CN2CCC(N(C)C(=O)n3cnc(-c4cccc(C(N)=O)c4)c3)CC2)cc1 [Example 33, hydrochloride] | 112.2
CN(C(=O)n1cnc(-c2cccc(OS(N)(=O)=O)c2)c1)C1CCN(c2ccc(Br)c(O)c2)CC1 [Example 29, hydrochloride] | 79.6
COc1cc(CN2CCC(N(C)C(=O)n3cnc(-c4cccc(OS(N)(=O)=O)c4)c3)CC2)ccc1F [Example 10, hydrochloride] | 100.0
COc1cc(CN2CCC(N(C)C(=O)n3cnc(-c4ccc(OS(N)(=O)=O)cc4)c3)CC2)ccc1F [Example 12, oxalate] | 106.2
COc1cc(CN2CCC(N(C)C(=O)n3cnc(-c4cccc(C(N)=O)c4)c3)CC2)ccc1F [Example 31, hydrochloride] | 111.7
CN(C(=O)n1cnc(-c2cccc(OS(N)(=O)=O)c2)c1)C1CCN(c2ccccc2)CC1 [Example 6, hydrochloride] | 88.7
CN(C(=O)n1cnc(-c2cccc(NS(C)(=O)=O)c2)c1)C1CCN(Cc2ccccc2)CC1 [Example 1, hydrochloride] | 111.4
COc1cccc(CN2CCC(N(C)C(=O)n3cnc(-c4cccc(NS(C)(=O)=O)c4)c3)CC2)c1 [Example 4, hydrochloride] | 100
COc1ccc(F)c(CN2CCC(N(C)C(=O)n3cnc(-c4cccc(C(N)=O)c4)c3)CC2)c1 [Example 32, hydrochloride] | 115.2
COc1ccc(CN2CCC(N(C)C(=O)n3cnc(-c4cccc(NC(N)=O)c4)c3)CC2)cc1OC [Example 26, hydrochloride] | 97.7
CN(C(=O)n1cnc(-c2cccc(C(N)=O)c2)c1)C1CCN(c2ccc(O)cc2)CC1 [Example 35, hydrochloride] | 73.8
COc1ccccc1N1CCC(N(C)C(=O)n2cnc(-c3cccc(C(N)=O)c3)c2)CC1 [Example 34, hydrochloride] | 105.4
